From: patent US8071810B2

target: human C5a receptor (CD88) (Homo sapiens); construct: expressed in transfected cells; host or cells: rat basophilic leukemia (RBL) cells, stably transfected; assay: C5a induced enzyme (glucosaminidase) release assay in RBL cells expressing the human C5a receptor (Example 28); assay type: cell-based; conditions: RBL cells with human C5aR; read-out: IC50 for the inhibition of C5a induced enzyme release
pIC50: −log10 of the molar value.
Each item that follows carries a reported pIC50.

MOLECULE	SYSTEM UNDER TEST	BOUND OPERATOR	pIC50
CCc1c(N)cc(Cl)c(CC)c1NC(=O)N(c1ccc(NC)cc1)[C@@H](C)c1ccc(Cl)cc1	human C5a receptor (CD88) (Homo sapiens)	=	8.52
CCc1c(N)cc(Cl)c(CC)c1NC(=O)N(c1ccc(C(C)C)cc1)[C@@H](C)c1ccc(C)cc1 [compound 73]	human C5a receptor (CD88) (Homo sapiens)	=	7.49
CCc1c(N)cc(Cl)c(CC)c1NC(=O)N(Cc1ccc(C)nc1)c1ccc(OC)c2ccccc12	human C5a receptor (CD88) (Homo sapiens)	=	7.26
CN(CC(=O)N(Cc1ccccc1F)C1Cc2ccccc2C1)C(c1ccccc1)c1ccccc1 [Compound 10, reference compound]	human C5a receptor (CD88) (Homo sapiens)	<	5.32
CCc1c(N)cc(Cl)c(CC)c1NC(=O)N(c1ccc(C(C)C)cc1)[C@@H](C)c1ccc(C)cc1 [(S)-3-(3-Amino-5-chlor-2,6-diethyl-phenyl)-1-(4-isopropyl-ph]	human C5a receptor (CD88) (Homo sapiens)	=	7.49
CCc1c(N)cc(Cl)c(CC)c1NC(=O)N(c1ccc(C(C)C)cc1)[C@@H](C)c1ccc(OC)cc1	human C5a receptor (CD88) (Homo sapiens)	=	7.26
Cc1ccc(CN(Cc2ccccc2)C(=O)c2ccccc2-n2cccc2)cc1 [Compound 8, reference compound]	human C5a receptor (CD88) (Homo sapiens)	=	5.72
CCc1c(N)cc(Cl)c(CC)c1NC(=O)N(c1ccc(C(C)C)cc1)[C@@H](C)c1ccc(F)cc1 [(S)-3-(3-Amino-5-chlor-2,6-diethyl-phenyl)-1-[1-(4-fluor-phe]	human C5a receptor (CD88) (Homo sapiens)	=	7.42
CCc1c(N)cc(Cl)c(CC)c1NC(=O)N(c1ccc(C(C)C)cc1)[C@@H](C)c1ccc(F)cc1 [compound 81]	human C5a receptor (CD88) (Homo sapiens)	=	7.42
CCc1c(N)cc(Cl)c(CC)c1NC(=O)N(c1ccc(OC)cc1F)[C@@H](C)c1ccc(Cl)cc1	human C5a receptor (CD88) (Homo sapiens)	=	7.51
CCc1c(N)cc(Cl)c(CC)c1NC(=O)N(Cc1ccc(OC)cc1)c1ccc(C(C)C)cc1	human C5a receptor (CD88) (Homo sapiens)	=	6.79
CCc1ccc(N(C(=O)Nc2c(CC)c(N)cc(Cl)c2CC)[C@@H](C)c2ccc(Cl)cc2)cc1F	human C5a receptor (CD88) (Homo sapiens)	=	7.46
CCc1c(N)cc(Cl)c(CC)c1NC(=O)N(Cc1ccc(Cl)nc1)c1ccc(C(C)C)cc1	human C5a receptor (CD88) (Homo sapiens)	=	7.21
CCc1ccc(N(Cc2ccc(Cl)cc2)C(=O)Nc2c(CC)c(N)cc(Cl)c2CC)cc1	human C5a receptor (CD88) (Homo sapiens)	=	7.07
CCc1cccc(CC)c1NC(=O)N(Cc1ccc(OC)cc1)c1ccc(C(C)C)cc1	human C5a receptor (CD88) (Homo sapiens)	=	6.28
CCc1c(N)cc(Cl)c(CC)c1NC(=O)N(c1ccc(C(C)C)cc1)[C@H](C)c1ccc(OC)cc1	human C5a receptor (CD88) (Homo sapiens)	=	6.21
CCc1c(N)cc(Cl)c(CC)c1NC(=O)N(Cc1ccc(Cl)cc1)c1ccc(NC)cc1	human C5a receptor (CD88) (Homo sapiens)	=	7.72
CCc1ccc(Cl)c(CC)c1NC(=O)N(Cc1ccc(OC)cc1)c1ccc(C(C)C)cc1	human C5a receptor (CD88) (Homo sapiens)	=	5.98

###

Each item that follows carries a reported pIC50.
Biological target: human C5a receptor (CD88) (Homo sapiens, UniProt P21730)
Construct: expressed in transfected cells; host or cells: rat basophilic leukemia (RBL) cells, stably transfected
Sequence (P21730 1-350): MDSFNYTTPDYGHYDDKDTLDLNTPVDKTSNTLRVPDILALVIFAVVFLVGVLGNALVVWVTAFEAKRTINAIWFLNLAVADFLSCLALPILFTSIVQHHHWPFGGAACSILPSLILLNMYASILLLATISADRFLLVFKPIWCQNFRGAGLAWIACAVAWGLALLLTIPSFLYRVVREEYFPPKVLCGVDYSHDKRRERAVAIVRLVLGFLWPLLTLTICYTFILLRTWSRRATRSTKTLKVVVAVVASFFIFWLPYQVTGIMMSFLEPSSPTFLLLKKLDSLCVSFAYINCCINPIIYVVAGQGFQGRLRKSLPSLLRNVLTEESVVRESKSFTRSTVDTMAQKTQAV
Test: C5a induced enzyme (glucosaminidase) release assay in RBL cells expressing the human C5a receptor (Example 28)
Format: cell-based
Conditions: inhibition of C5a induced enzyme release, RBL cells with human C5aR; read-out: Activity-range (antagonistic activity, IC50 enzyme release)
pIC50: −log10 of the molar value.
PROPERTY LABEL: pIC50

                                   molecule  property_label        result
0  CCc1c(N)cc(Cl)c(CC)c1NC(=O)N(Cc1ccc(Cl)cc1)c1ccc(SC(F)(F)F)cc1 [compound 93]           pIC50  5.30 to 6.70
1  CCc1c(N)cc(Cl)c(CC)c1NC(=O)N(Cc1ccc(C(F)(F)F)nc1)c1ccc(C(C)C)cc1 [compound 87]           pIC50  5.30 to 6.70
2  CCc1c(N)cc(Cl)c(CC)c1NC(=O)N(Cc1ccc2c(c1)CCO2)c1ccc(C(C)C)cc1 [compound 65]           pIC50  6.70 to 7.22

###

target: human C5a receptor (CD88) (Homo sapiens); construct: expressed in transfected cells; host or cells: rat basophilic leukemia (RBL) cells, stably transfected; test: C5a induced enzyme (glucosaminidase) release assay in RBL cells expressing the human C5a receptor (Example 28); format: cell-based; conditions: inhibition of C5a induced enzyme release, RBL cells with human C5aR; read-out: Activity-range (antagonistic activity, IC50 enzyme release)
pIC50: −log10 of the molar value.
Each item that follows carries a reported pIC50.
PROPERTY LABEL: pIC50

                                    compound        result
 0  CCc1c(N)cc(Cl)c(CC)c1NC(=O)N(Cc1ccc(C(F)(F)F)cc1)c1ccc(C(C)C)cc1  5.30 to 6.70
 1  CCc1c(N)cc(Cl)c(CC)c1NC(=O)N(Cc1ccc(Cl)cc1)c1ccc(OC(F)F)cc1  5.30 to 6.70
 2  C#Cc1ccc(N(Cc2ccc(OC)cc2)C(=O)Nc2c(CC)c(N)cc(Cl)c2CC)cc1  5.30 to 6.70
 3  CCc1c(N)cc(Cl)c(CC)c1NC(=O)N(Cc1ccccc1)c1ccc(C(C)C)cc1  5.30 to 6.70
 4  CCc1ccc(N(C(=O)Nc2c(CC)c(N)cc(Cl)c2CC)C(C)c2ccc3c(c2)ncn3C)cc1 (centres unmarked)  6.70 to 7.22
 5  CCc1ccc(N(Cc2ccc(C)nc2)C(=O)Nc2c(CC)ccc(N)c2CC)cc1  5.30 to 6.70
 6  CCc1ccc(N)c(CC)c1NC(=O)N(c1ccc(C(C)C)cc1)[C@H](C)c1ccc(OC)cc1  5.30 to 6.70
 7  CCc1ccc(N(Cc2ccc(N)cc2)C(=O)Nc2c(CC)c(N)cc(Cl)c2CC)cc1  5.30 to 6.70
 8  CCc1c(Cl)cc(NCC(N)=O)c(CC)c1NC(=O)N(Cc1ccc(OC)cc1)c1ccc(C(C)C)cc1  5.30 to 6.70
 9  CCc1ccc(N(Cc2ccc(C)cc2)C(=O)Nc2c(CC)ccc(N)c2CC)cc1  5.30 to 6.70
10  CCc1c(N)cc(Cl)c(CC)c1NC(=O)N(Cc1ccc(C)cc1)c1ccc(C(C)C)cc1  6.70 to 7.22
11  CCc1c(N)cc(Cl)c(CC)c1NC(=O)N(Cc1ccc(Cl)cc1)c1ccc(OC)c2cccnc12  6.70 to 7.22
12  CCc1ccc(N(Cc2ccc(OC)cc2)C(=O)Nc2c(CC)c(N)cc(Cl)c2CC)cc1  5.30 to 6.70
13  CCc1ccc(N)c(CC)c1NC(=O)N(c1ccc(C(C)C)cc1)C1CCc2ccccc21 (centres unmarked)  5.30 to 6.70
14  CN(CC(=O)N(Cc1ccccc1F)C1Cc2ccccc2C1)C(c1ccccc1)c1ccccc1 [Compound 10, reference compound]        < 5.30
15  CCc1c(N)cc(Cl)c(CC)c1NC(=O)N(Cc1ccc(Cl)cc1)c1ccc(OC)c2ccccc12  6.70 to 7.22
16  CCc1ccc(N(C(=O)Nc2c(CC)c(N)cc(Cl)c2CC)[C@@H](C)c2ccc(F)cc2)cc1  6.70 to 7.22
17  CCc1c(N)cc(Cl)c(CC)c1NC(=O)N(CCc1ccc(C)cc1)c1ccc(C(C)C)cc1  5.30 to 6.70
18  CCc1c(N)cc(Cl)c(CC)c1NC(=O)N(Cc1ccc(Cl)cc1)c1ccc(CC(F)(F)F)cc1  6.70 to 7.22
19  CCc1c(N)cc(Cl)c(CC)c1NC(=O)N(Cc1ccccc1)c1ccc(N(C)C)cc1  5.30 to 6.70
20  CCc1ccc(N(Cc2ccc(-n3cccn3)cc2)C(=O)Nc2c(CC)c(N)cc(Cl)c2CC)cc1  5.30 to 6.70
21  CCc1c(N)cc(Cl)c(CC)c1NC(=O)N(Cc1ccc(OC)nc1)c1ccc(C(C)C)cc1  5.30 to 6.70
22  CCc1c(N)cc(Cl)c(CC)c1NC(=O)N(CC1CCCCC1)c1ccc(C(C)C)cc1  5.30 to 6.70
23  CCNc1ccc(CC)c(NC(=O)N(Cc2ccc(OC)cc2)c2ccc(C(C)C)cc2)c1CC        < 5.30
24  CCc1ccc(N)c(CC)c1NC(=O)N(Cc1ccc(C)cc1)c1ccc(C(C)C)cc1  5.30 to 6.70
25  CCc1ccc(N(C(=O)Nc2c(CC)c(N)cc(Cl)c2CC)[C@@H](C)c2ccc(Cl)cc2)cc1        > 7.22
